# System Under Test: c-Src SH2
# Experimental Details: SH2 binding enrichment of the phosphorylated peptide, bacterial display (enrichment ratio); higher = better substrate or ligand; peptides without Tyr show the background
Quantity Name: SH2 binding enrichment
Answer with a number only.

RGRSTCYWPRP [GAGE12J_Y9_Y9C]	0.658
KDHPDYKFQAR [SOX10_Y171_P175A_YF]	0.516
SREDIYKRNIE [PDE4DIP_Y45]	0.403

Query block: Output SH2 binding enrichment of PSALGYSPSLH [LLGL2_Y40_R45H]
Result block: 0.466

* * *

# System Under Test: FGFR1 (UniProt P11362)
# Sequence (P11362 whole entry, looked up): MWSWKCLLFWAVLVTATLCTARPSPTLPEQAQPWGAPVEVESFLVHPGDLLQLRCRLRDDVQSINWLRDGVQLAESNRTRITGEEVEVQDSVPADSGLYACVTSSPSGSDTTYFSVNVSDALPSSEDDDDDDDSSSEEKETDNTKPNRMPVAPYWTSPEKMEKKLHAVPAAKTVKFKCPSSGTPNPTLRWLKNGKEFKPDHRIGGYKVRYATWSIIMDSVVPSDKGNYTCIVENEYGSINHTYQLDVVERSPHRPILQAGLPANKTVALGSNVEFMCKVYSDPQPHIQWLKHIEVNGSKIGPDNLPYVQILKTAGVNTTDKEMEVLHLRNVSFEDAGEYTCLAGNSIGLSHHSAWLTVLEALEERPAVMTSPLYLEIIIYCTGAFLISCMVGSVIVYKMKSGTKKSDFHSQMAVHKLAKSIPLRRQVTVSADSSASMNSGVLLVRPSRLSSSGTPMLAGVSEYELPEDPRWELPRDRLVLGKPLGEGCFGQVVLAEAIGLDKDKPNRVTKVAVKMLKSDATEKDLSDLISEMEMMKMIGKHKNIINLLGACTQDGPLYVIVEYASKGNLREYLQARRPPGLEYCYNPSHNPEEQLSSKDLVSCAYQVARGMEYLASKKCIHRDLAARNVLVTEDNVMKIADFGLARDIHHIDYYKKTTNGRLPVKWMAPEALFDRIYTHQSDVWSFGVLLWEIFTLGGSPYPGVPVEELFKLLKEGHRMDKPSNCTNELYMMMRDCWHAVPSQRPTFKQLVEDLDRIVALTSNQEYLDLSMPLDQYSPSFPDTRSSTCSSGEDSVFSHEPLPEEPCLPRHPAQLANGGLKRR
# Experimental Details: phosphorylation enrichment, bacterial display (enrichment ratio); higher = better substrate or ligand; peptides without Tyr show the background
Quantity Name: phosphorylation enrichment
Answer with a number only.

The cases that follow already have their phosphorylation enrichment on record.
GRRNTYFASIA [ACADM_Y352_YF]	0.439
DKITQYVEEVK [STX2_Y49]	0.552

Query block: Output phosphorylation enrichment of CLNAIYQNNLT [GSR_Y158_R153C]
Result block: 0.479

Query block: Output phosphorylation enrichment of QTEAEYRFIFM [PTPN11_Y511_Q510E_YF]
Result block: 1.46

Query block: Output phosphorylation enrichment of SAVTGYRVNVI [FN1_Y937_D940N]
Result block: 0.391

Query block: Output phosphorylation enrichment of KRIKSYNQEND [RPGRIP1L_Y448_L447S]
Result block: 0.396

Query block: Output phosphorylation enrichment of DQGEQYKKELE [LMNA_Y259_V256G]
Result block: 0.464

Query block: Output phosphorylation enrichment of GADDSYFTARS [ZAP70_Y492_YF]
Result block: 0.557

Query block: Output phosphorylation enrichment of GVFSRHFTTFD [CLCA1_Y661_Y661H_YF]
Result block: 0.644

Query block: Output phosphorylation enrichment of KSSDVYVSFDF [SORL1_Y136_YF]
Result block: 3.78

Query block: Output phosphorylation enrichment of LERYIYNRQEF [HLA-DPB1_Y59_E62Q]
Result block: 0.624

Query block: Output phosphorylation enrichment of NFRTIYVNANE [KCNH2_Y475_T474I]
Result block: 0.417

* * *

# Test system: c-Abl (mouse)
# Experimental Details: phosphorylation enrichment, bacterial display (enrichment ratio); higher = better substrate or ligand; peptides without Tyr show the background
Class (by phosphorylation enrichment) -- lo = under 0.7, mid = from 0.7 up to 0.8, hi = 0.8 and over

Query block: Sort into band: FLENFYDLKKD [MMP3_Y42_YF]
Result block: lo

Query block: Sort into band: QQLQGYVPSNF [FRK_Y99_I100V_YF]
Result block: hi

Query block: Sort into band: ARLEYCENEKK [IRS1_Y47_Y47C]
Result block: lo

Query block: Sort into band: KVVQEYERVII [NPHS2_Y131]
Result block: mid

* * *

Measured SH2 binding enrichment, listed per entry.
# System Under Test: SHP2-C SH2
# Experimental Details: SH2 binding enrichment of the phosphorylated peptide, bacterial display (enrichment ratio); higher = better substrate or ligand; peptides without Tyr show the background

The cases that follow already have their SH2 binding enrichment on record.
LPEENYQVLRF [ARHGAP1_Y365]	0.784
RRIHSYRGQLW [VHL_Y112_H115Q]	0.45
SASQEYHIVKK [PDZD2_Y557]	0.893
VEEDTYTMPST [PTK2_Y407_D402V]	0.648
AHADEYGAEAL [HBA1_Y25_G23D]	0.66

From here, focus on the item given below.
Query block: Output SH2 binding enrichment of EDSEYYKAFEE [CASQ2_Y179]
Result block: 0.748
